tested on: E. coli assay strain Km3; assay type: cell-based; conditions: M9 assay plates, 0.2 ppm chlorsulfuron, 48 hr at 30° C., ImageJ colony color intensity
Field: label. Allowed values: 1 (0.2 ppm 48 hr (colony color intensity) < 20) or -1 (0.2 ppm 48 hr (colony color intensity) >= 20).

- L6-3H02: SuR polypeptide, SEQ ID NO:94 (protein, Sulfonylurea responsive repressor) MGSRLDKSKVINSALELLNEVGIEGLTTRKLAQKLGVEQPTLYWHVKNKRALLDALAIEMMDRHATHYCPLEGESWQDFLRNTAKSMRCALLSHRDGAKVCLGTRWTEQHYESAENMLAFLCQQGFSLENALYAVSAVRVFTLGCVLFDQESQVAKEERETPTTASMPPLVRQAWELKVHQGAEPAFLFGLELIICGLEKQLKCESGS: 1
- L6-5H12 (protein, Sulfonylurea responsive repressor) MGSRLDKSKVINSALELLNEVGIEGLTTRKLAQKLGVEQPTLYWHVKNKRALLDALAIEMMDRHATHYCPLEGESWQDFLRNNAKSMRCALLSHRDGAKVCLGTRWTEKQYETAENQLAFLCQQGFSLENALYAMSAVRVFTLGCVLFDQELQVAKEERETPTTASMPPLVRQAWELKDHQGAEPAFLFGLELIICGLEKQLKCESGS: -1
- L6-5F05 (protein, Sulfonylurea responsive repressor) MGSRLDKSKVINSALELLNEVGIEGLTTRKLAQKLGVEQPTLYWHVKNKRALLDALAIEMMDRHATHICPLEGESWQDFLRNNAKSMRCALLSHRDGAKVCLGTRWTEQQYEAAENQLAFLCQQGFSLENALYAVSAVRVFTLGCVLFDQELQVAKEERETPTTASMPPLLRQAWELKDHQGAEPAFLFGLELIICGLEKQLKCESGS: -1
- L6-1B03 (protein, Sulfonylurea responsive repressor) MGSRLDKSKVINSALELLNEVGIEGLTTRKLAQKLGVEQPTLYWHVKNKRALLDALAIEMMDRHATHICPLEGESWQDFLRNNAKSMRCALLSHRDGAKVCLGTRWTEQQYEAAENMLAFLCQQGFSLENALYAVSAVRVFTLGCVLFDQESQVAKEERETPTTASMPPLLRQAWELKDHQGAEPAFLFGLELIICGLEKQLKCESGS: -1
- L6-4D10: library L6 clone, parent of library L8 hits (protein, Sulfonylurea responsive repressor, library L6 clone, parent of library L8 hits) MGSRLDKSKVINSALELLNEVGIEGLTTRKLAQKLGVEQPTLYWHVKNKRALLDALAIEMMDRHQTHYCPLEGESWQDFLRNNAKSMRCALLSHRDGAKVCLGTRWTEKQYESAENMLAFLCQQGFSLENALYAVSAVRVFTLGCVLFDQESQVAKEERETPTTASMPPLLRQAWELKDHQGAEPAFLFGLELIICGLEKQLKCESGS: 1
- L6-2C09 (protein, Sulfonylurea responsive repressor) MGSRLDKSKVINSALELLNEVGIEGLTTRKLAQKLGVEQPTLYWHVKNKRALLDALAIEMMDRHQTHYCPLEGESWQDFLRNTAKSMRCALLSHRDGAKVCLGTRWTEQLYETAENQLAFLCQQGFSLENALYAMSAVRVFTLGCVLFDQELQVAKEERETPTTASMPPLLRQAWELKDHQGAEPAFLFGLELIICGLEKQLKCESGS: 1
- L6-5H06 (protein, Sulfonylurea responsive repressor) MGSRLDKSKVINSALELLNEVGIEGLTTRKLAQKLGVEQPTLYWHVKNKRALLDALAIEMMDRHQTHICPLEGESWQDFLRNNAKSMRCALLSHRDGAKVCLGTRWTEKQYETAENMLAFLCQQGFSLENALYAVSAVRVFTLGCVLFDQELQVAKEERETPTTASMPPLVRQAWELKDHQGAEPAFLFGLELIICGLEKQLKCESGS: 1
- L6-5G06 (protein, Sulfonylurea responsive repressor) MGSRLDKSKVINSALELLNEVGIEGLTTRKLAQKLGVEQPTLYWHVKNKRALLDALAIEMMDRHQTHYCPLEGESWQDFLRNNAKSMRCALLSHRDGAKVCLGTRWTEQQYETAENQLAFLCQQGFSLENALYAVSAVRVFTLGCVLFDQELQVAKEERETPTTASMPPLLRQGWELKDHQGAEPAFLFGLELIICGLEKQLKCESGS: -1
- L6-6F07 (protein, Sulfonylurea responsive repressor) MGSRLDKSKVINSALELLNEVGIEGLTTRKLAQKLGVEQPTLYWHVKNKRALLDALAIEMMDRHATHLCPLEGESWQDFLRNTAKSMRCALLSHRDGAKVCLGTRWTEQQYESAENMLAFLCQQGFSLENALYAMSAVRVFTLGCVLFDQESQVAKEERETPTTASMPPLLRQAWELKDHQGAEPAFLFGLELIICGLEKQLKCESGS: 1

Ref: patent US20160152995A1
